// provenance: patent US20100022509A1

Assayed target: MshC (Mycobacterium tuberculosis)
Assay summary: biochemical
Assay type: biochemical, M. tuberculosis
Experimental conditions: IC50
Recorded IC50 values for a group of compounds are listed next.
Recorded endpoint: IC50

Compound	Result
CCN1C(=O)c2ccccc2[S+]([O-])c2ccc(C(=O)NCCCSC3CCCCC3)cc21 (stereo not shown)	> 3 mM
CCCCN(CCCC)CCCNC(=O)c1ccc2c(c1)N(CC)C(=O)c1ccccc1[S+]2[O-] (stereo not shown)	> 3 mM
O=C(NCCCC1CCCCCC1)c1ccc2c(c1)N(Cc1cccc(Cl)c1)C(=O)c1ccccc1S2(=O)=O	≥ 0.5 mM
O=C(NCCCN1CCC(Cc2ccccc2)CC1)c1ccc2c(c1)N(Cc1ccc(Cl)cc1)C(=O)c1ccccc1S2(=O)=O	> 3 mM
O=C(NCCCN1CCCC1)c1ccc2c(c1)N(Cc1cccc(Cl)c1)C(=O)c1ccccc1[S+]2[O-] (stereo not shown)	0.097 mM
CCCN(CCC)CCCNC(=O)c1ccc2c(c1)N(CC)C(=O)c1ccccc1[S+]2[O-] (stereo not shown)	> 3 mM
O=C(NCCCN1CCC(Cc2ccccc2)CC1)c1ccc2c(c1)N(Cc1ccccc1F)C(=O)c1ccccc1[S+]2[O-] (stereo not shown)	> 3 mM

====

Assayed target: UniProtKB P9WJM9
Sequence (P9WJM9 1-414): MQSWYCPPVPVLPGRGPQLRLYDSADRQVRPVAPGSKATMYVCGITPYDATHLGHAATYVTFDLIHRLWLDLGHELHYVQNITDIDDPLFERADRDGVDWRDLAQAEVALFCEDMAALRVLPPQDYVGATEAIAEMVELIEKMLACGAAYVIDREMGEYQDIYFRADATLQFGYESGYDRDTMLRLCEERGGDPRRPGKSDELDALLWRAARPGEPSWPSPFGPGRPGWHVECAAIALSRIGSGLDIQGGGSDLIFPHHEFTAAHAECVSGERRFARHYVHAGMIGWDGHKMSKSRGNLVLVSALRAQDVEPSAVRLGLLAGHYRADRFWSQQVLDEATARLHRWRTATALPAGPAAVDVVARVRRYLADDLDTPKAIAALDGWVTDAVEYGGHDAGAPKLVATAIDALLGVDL
Assay summary: Inhibition studies of MshC ligase activity (HEPES pH 7.5, HPLC)
Assay type: biochemical, M. tuberculosis
Experimental conditions: 80-1600 μM; 70 μM L-Cys and 50 μM GlcN-Ins
Recorded endpoint: inhibition of the ligase activity, in words

Compound	Result
N[C@@H](CCS)C(=O)O	very minor inhibition
O=C(O)CCS [β-mercaptopropionate, β-mercaptopropionic acid]	minor inhibition
C[C@H](N)C(=O)O	very minor inhibition
N[C@H](CS)C(=O)O	very minor inhibition
CC(=O)N[C@@H](CS)C(=O)O	minor inhibition
CC[C@H](N)C(=O)O	very minor inhibition
N[C@@H](CO)C(=O)O	very minor inhibition

====

Assayed target: MshC (Mycobacterium tuberculosis, UniProt P9WJM9)
Assay summary: biochemical
Type: biochemical, M. tuberculosis
Experimental conditions: IC50
Recorded endpoint: IC50

Compound	Result
CC1CCCN(CCCNC(=O)c2ccc3c(c2)N(Cc2cccc(Cl)c2)C(=O)c2ccccc2S3(=O)=O)C1 (stereo not shown)	~1000 µM
O=C(NCCCN1CCOCC1)c1ccc2c(c1)N(Cc1cccc(Cl)c1)C(=O)c1ccccc1[S+]2[O-] (stereo not shown)	470 µM
O=C(NCCCN1CCN(c2cccc(Cl)c2)CC1)c1ccc2c(c1)N(Cc1ccc(Cl)cc1)C(=O)c1ccccc1S2(=O)=O	> 3000 µM
Cc1ccc(C)c(CN2C(=O)c3ccccc3S(=O)(=O)c3ccc(C(=O)NCCN4CCCCC4C)cc32)c1 (stereo not shown)	> 3000 µM
O=C(NCCN1CCCCCC1)c1ccc2c(c1)N(Cc1cccc(Cl)c1)C(=O)c1ccccc1[S+]2[O-] (stereo not shown)	~80 µM
CN(CCCNC(=O)c1ccc2c(c1)N(Cc1cccc(Cl)c1)C(=O)c1ccccc1[S+]2[O-])c1ccccc1 (stereo not shown)	> 2000 µM
CC(C)CN(CCCNC(=O)c1ccc2c(c1)N(Cc1cccc(Cl)c1)C(=O)c1ccccc1[S+]2[O-])CC(C)C (stereo not shown)	~3000 µM
O=C(NCCCN1CCN(Cc2ccccc2)CC1)c1ccc2c(c1)N(Cc1ccccc1)C(=O)c1ccccc1S2(=O)=O	2500 µM
CC1CC(C)CN(CCCNC(=O)c2ccc3c(c2)N(Cc2ccc(Cl)cc2)C(=O)c2ccccc2S3(=O)=O)C1 (stereo not shown)	> 3000 µM
CCC1CCCCN1CCCNC(=O)c1ccc2c(c1)N(Cc1ccccc1)C(=O)c1ccccc1S2(=O)=O (stereo not shown)	≥ 500 µM
Cc1ccc(C)c(CN2C(=O)c3ccccc3S(=O)(=O)c3ccc(C(=O)NCCCN4CCCCCC4)cc32)c1	> 500 µM
CN(CCCNC(=O)c1ccc2c(c1)N(Cc1ccccc1F)C(=O)c1ccccc1[S+]2[O-])C1CCCCC1 (stereo not shown)	> 3000 µM
Cc1ccc(C)c(CN2C(=O)c3ccccc3[S+]([O-])c3ccc(C(=O)NCCCN4CCCCCC4)cc32)c1 (stereo not shown)	650 µM
O=C(NCCCSC1CCCCC1)c1ccc2c(c1)N(Cc1ccccc1)C(=O)c1ccccc1S2(=O)=O	> 3000 µM
CC1CCCN(CCCNC(=O)c2ccc3c(c2)N(Cc2ccccc2F)C(=O)c2ccccc2S3(=O)=O)C1 (stereo not shown)	100 µM
O=C(NCCN1CCN(Cc2ccccc2)CC1)c1ccc2c(c1)N(Cc1cccc(Cl)c1)C(=O)c1ccccc1[S+]2[O-] (stereo not shown) [Inhibitor 83-56]	> 3000 µM
O=C(NCCCSC1CCCCC1)c1ccc2c(c1)N(Cc1ccccc1F)C(=O)c1ccccc1[S+]2[O-] (stereo not shown)	> 3000 µM
CCCN(CCC)CCCNC(=O)c1ccc2c(c1)N(Cc1cccc(Cl)c1)C(=O)c1ccccc1[S+]2[O-] (stereo not shown)	~200 µM
Cc1cccc(CN2C(=O)c3ccccc3S(=O)(=O)c3ccc(C(=O)NCCCN4CCCCCC4)cc32)c1	> 3000 µM
CCCCN(C)CCCNC(=O)c1ccc2c(c1)N(Cc1cccc(C)c1)C(=O)c1ccccc1S2(=O)=O	1500 µM
CCN1C(=O)c2ccccc2[S+]([O-])c2ccc(C(=O)NCCCN3CCOCC3)cc21 (stereo not shown)	> 3000 µM
Cc1ccc(C)c(CN2C(=O)c3ccccc3[S+]([O-])c3ccc(C(=O)NCCCSC4CCCCC4)cc32)c1 (stereo not shown)	> 3000 µM
CCN1C(=O)c2ccccc2[S+]([O-])c2ccc(C(=O)NCCCN3CCCCCC3)cc21 (stereo not shown)	> 3000 µM
CC1CCCN(CCCNC(=O)c2ccc3c(c2)N(Cc2ccccc2)C(=O)c2ccccc2S3(=O)=O)C1 (stereo not shown)	1700 µM
CCC1CCCCN1CCCNC(=O)c1ccc2c(c1)N(Cc1cccc(C)c1)C(=O)c1ccccc1S2(=O)=O (stereo not shown)	~2000 µM
CC(C)CN(CCCNC(=O)c1ccc2c(c1)N(Cc1ccc(Cl)cc1)C(=O)c1ccccc1S2(=O)=O)CC(C)C	> 3000 µM
O=C(NCCCN1CCOCC1)c1ccc2c(c1)N(Cc1ccccc1)C(=O)c1ccccc1[S+]2[O-] (stereo not shown)	> 3000 µM
CN(CCCNC(=O)c1ccc2c(c1)N(Cc1ccc(Cl)cc1)C(=O)c1ccccc1S2(=O)=O)c1ccccc1	> 3000 µM
